# ASSAY_METHOD_TEXT: Ratio of the LC50 value to that of PBI-A.
# Format: functional
MEASURED_ATTRIBUTE: Ratio
No unit in the answer, only the number.

// known answers, use as guide
COMPOUND: CC(=O)OC1CCn2c1nc1c2C(=O)C(C)=C(N2CC2)C1=O (centres undefined)
MEASURED_ATTRIBUTE: Ratio
MEASURED_RESULT: 1

COMPOUND: CCC(=O)OC1CCn2c1nc1c2C(=O)C(C)=C(N2CC2)C1=O (centres undefined)
MEASURED_ATTRIBUTE: Ratio
MEASURED_RESULT: 0.72

COMPOUND: CC1=C(N2CC2)C(=O)c2nc3n(c2C1=O)CCC3
MEASURED_ATTRIBUTE: Ratio
MEASURED_RESULT: 0.71

We next turn to a different compound, shown below.
Look up Ratio for this compound: CC1=C(N2CC2)C(=O)c2nc3n(c2C1=O)CCC3OC(N)=O (centres undefined)
0.84
